These measurements were taken from patent US20250059172A1.

system: human A549 cells; experiment: Inhibition test of PGE2 production using human A549 cells; format: cell-based; conditions: IL-1β stimulated A549 cells, 24 h, PGE2 by HTRF, read-out: A549 cell inhibition of PGE2 production IC50
Property: IC50 (nM)

1) CC(C)(C)C(=O)NCc1ccc(Cl)c(C(=O)Nc2cccc3c2cnn3-c2ccc(C#N)cc2)c1
1.8
2) CC(C)(CO)C(=O)NCc1ccc(Cl)c(C(=O)Nc2cccc3c2cnn3-c2ccc(Cl)cc2)c1
3.2
3) CC(C)(C)CC(=O)NCc1ccc(Cl)c(C(=O)Nc2cccc3c2cnn3-c2ccc(C(F)(F)F)cc2)c1
2.8
4) Cc1ccc(-n2ncc3c(NC(=O)c4cc(CNC(=O)C(C)(C)C)ccc4C(F)(F)F)cccc32)cn1.Cl [Example 88, hydrochloride]
68.2
5) CC(C)(C)C(=O)NCc1ccc(C(F)(F)F)c(C(=O)Nc2cccc3c2cnn3-c2cccc(OC(F)(F)F)c2)c1
0.8
6) CC(=O)N1CCC(n2ncc3c(NC(=O)c4cc(CNC(=O)C(C)(C)C)ccc4Cl)cccc32)CC1
884
7) CC(C)(C)C(=O)NCc1ccc(Cl)c(C(=O)Nc2cccc3c2cnn3Cc2ccc(C(F)(F)F)cc2)c1
4.2

###

Measured inhibition at 0.01 µM of individual entries
molecular target: UniProtKB O14684; assay: mPGES-1 inhibitory activity test; format: biochemical; conditions: 10 nM test compound
Property: inhibition at 0.01 µM

1) COCC(=O)NCc1ccc(Cl)c(C(=O)Nc2cccc3c2cnn3C)c1
59%
2) Cc1ccc(-n2ncc3c(NC(=O)c4cc(CNC(=O)CC(C)(C)C)ccc4Cl)cccc32)cc1Cl
64%
3) COc1cc(-n2ncc3c(NC(=O)c4cc(CNS(=O)(=O)C5CC5)ccc4Cl)cccc32)ccn1
80%

###

Measured inhibition at 0.01 µM accompanies every entry in the list below.
target: human mPGES-1 (Homo sapiens (Human), UniProt O14684); assay: mPGES-1 inhibitory activity test; type: biochemical; conditions: 10 nM test compound
Sequence (O14684 whole entry): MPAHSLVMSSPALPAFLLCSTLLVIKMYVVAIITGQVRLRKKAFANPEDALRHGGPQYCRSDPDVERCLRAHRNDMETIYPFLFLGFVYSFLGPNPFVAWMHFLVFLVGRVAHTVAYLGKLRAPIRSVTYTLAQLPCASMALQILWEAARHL
Property: inhibition at 0.01 µM (%)

1) CC(C)n1ncc2c(NC(=O)c3cc(CNC(=O)C4CCCC4)ccc3Cl)cccc21 [Example 180]
75
2) CC(C)(C)C(=O)NCc1ccc(C(F)(F)F)c(C(=O)Nc2cccc3c2cnn3C2CC2)c1 [Example 285]
75
3) Cc1ccc(-n2ncc3c(NC(=O)c4cc(CNS(=O)(=O)C5CC5)ccc4Cl)cccc32)cc1C(F)(F)F [Example 260]
89
4) O=C(Nc1cccc2c1cnn2-c1ccc(OC(F)(F)F)cc1)c1cc(CNC(=O)C2(C(F)(F)F)CC2)ccc1Cl [Example 116]
68
5) COc1ccc(-n2ncc3c(NC(=O)c4cc(CNC(=O)C5(O)CC5)ccc4Cl)cccc32)cc1C(F)(F)F [Example 264]
94
6) CCn1ncc2c(NC(=O)c3cc(CNC(=O)C4(C(F)(F)F)CC4)ccc3Cl)cccc21 [Example 212]
71
7) CC(C)(C)C(=O)NCc1ccc(C(F)(F)F)c(C(=O)Nc2cccc3c2cnn3-c2cccc(OC(F)(F)F)c2)c1 [Example 195]
65
8) COc1ccc(-n2ncc3c(NC(=O)c4cc(CNC(=O)C5(C(F)(F)F)CC5)ccc4Cl)cccc32)cc1C(F)(F)F [Example 263]
89
9) COCC(=O)NCc1ccc(Cl)c(C(=O)Nc2cccc3c2cnn3-c2cccc(C(F)(F)F)c2)c1 [Example 222]
61
10) Cc1ccc(-n2ncc3c(NC(=O)c4cc(CNC(=O)C5(O)CC5)ccc4Cl)cccc32)cc1C(F)(F)F [Example 257]
94
11) CC(C)(C)CC(=O)NCc1ccc(Cl)c(C(=O)Nc2cccc3c2cnn3-c2ccc(Cl)cc2)c1 [Example 145]
92
12) Cc1cc(-n2ncc3c(NC(=O)c4cc(CNC(=O)C5CCCC5)ccc4Cl)cccc32)cc(C)n1 [Example 278]
72
13) O=C(Nc1cccc2c1cnn2-c1cncc(C(F)(F)F)c1)c1cc(CNC(=O)C2(C(F)(F)F)CC2)ccc1Cl [Example 168]
53
14) O=C(Nc1cccc2c1cnn2-c1cncc(C(F)(F)F)c1)c1cc(CNS(=O)(=O)C2CC2)ccc1Cl [Example 172]
100
15) O=C(Nc1cccc2c1cnn2-c1ccc(F)cc1)c1cc(CNS(=O)(=O)C2CC2)ccc1Cl [Example 157]
100
